- test-target: human MCH-1R (human, UniProt Q99705 1-353)
- Sequence (Q99705 whole entry): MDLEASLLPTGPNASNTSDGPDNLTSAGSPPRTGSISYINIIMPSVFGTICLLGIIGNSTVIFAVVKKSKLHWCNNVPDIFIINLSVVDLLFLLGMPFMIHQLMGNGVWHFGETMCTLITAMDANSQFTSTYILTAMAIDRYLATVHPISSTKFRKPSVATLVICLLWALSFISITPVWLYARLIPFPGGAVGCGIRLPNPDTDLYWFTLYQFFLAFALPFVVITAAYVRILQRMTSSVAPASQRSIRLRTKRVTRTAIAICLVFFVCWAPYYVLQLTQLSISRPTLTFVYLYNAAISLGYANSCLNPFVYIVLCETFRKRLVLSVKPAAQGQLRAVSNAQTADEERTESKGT
- run-description: cell-based or functional assay
metric: Selectivity 2/1 (MCH-2R/MCH-1R EC50 activity ratio)
One number for each entry, in ratio.

Return the recorded Selectivity 2/1 (MCH-2R/MCH-1R EC50 activity ratio) value; entry: RCMLXRVYRPC (HELM PEPTIDE1{[ac].R.C.M.L.[Cit].R.V.Y.R.P.C.[am]}$PEPTIDE1,PEPTIDE1,3:R3-12:R3$$$V2.0; SMILES CSCC[C@@H]1NC(=O)[C@@H](NC(=O)[C@H](CCCNC(=N)N)NC(C)=O)CSSC[C@@H](C(N)=O)NC(=O)[C@@H]2CCCN2C(=O)[C@H](CCCNC(=N)N)NC(=O)[C@H](Cc2ccc(O)cc2)NC(=O)[C@H](C(C)C)NC(=O)[C@H](CCCNC(=N)N)NC(=O)[C@H](CCCNC(N)=O)NC(=O)[C@H](CC(C)C)NC1=O, also called Cit^10 peptide) [SEQ. ID. NO. 27 (Cit^10 analog of Ac-hMCH(6-16)-NH2)]
0.3

Hello, the source for this data is patent US20050020492A1, in case you need it.
